# Tested on: 855422-203-R-J1-PDC spheroids with HUVEC/MSC, viability
# Protocol summary: Anticancer human tumor 855422-203-R-J1-PDC patient-derived bladder carcinoma cell line growth inhibition [PI3K]; active = viability on the fitted dose curve at most 10% of control; inactive = the rest
# Measurement setup: second compound 1 µM; first compound 0.0316 µM
Returns: one label drawn from active, inactive

In this assay, the call recorded for CC(=O)c1c(C)c2cnc(Nc3ccc(N4CCNCC4)cn3)nc2n(C2CCCC2)c1=O + Cc1nc(NC(=O)N2CCCC2C(N)=O)sc1-c1ccnc(C(C)(C)C(F)(F)F)c1 was what?
inactive

In this assay, the call recorded for CC1(C)CCC(Nc2ncc(C(F)(F)F)c(-c3c[nH]c4c(P(C)(C)=O)c(C#N)ccc34)n2)CN1 (centres undefined) + COc1c(OCCCN2CCOCC2)ccc2c3n(c(=NC(=O)c4cnc(N)nc4)nc12)CCN3 was what?
active

In this assay, the call recorded for CC1(C)CCC(Nc2ncc(C(F)(F)F)c(-c3c[nH]c4c(P(C)(C)=O)c(C#N)ccc34)n2)CN1 (centres undefined) + CC(Nc1ccc2c(c1)OCCn1cc(N3C(=O)OCC3C(F)F)nc1-2)C(N)=O was what?
inactive

In this assay, the call recorded for CCN1CCN(Cc2ccc(Nc3ncc(F)c(-c4cc(F)c5nc(C)n(C(C)C)c5c4)n3)nc2)CC1 + CC(Nc1ncnc2nc[nH]c12)c1cc2cccc(Cl)c2c(=O)n1-c1ccccc1 was what?
inactive

In this assay, the call recorded for CNC(=O)c1ccc(N2C(=S)N(c3ccc(C#N)c(C(F)(F)F)c3)C(=O)C2(C)C)cc1F + CC(Nc1ncnc2nc[nH]c12)c1cc2cccc(Cl)c2c(=O)n1-c1ccccc1 was what?
inactive

In this assay, the call recorded for CC(=O)c1c(C)c2cnc(Nc3ccc(N4CCNCC4)cn3)nc2n(C2CCCC2)c1=O + COc1c(OCCCN2CCOCC2)ccc2c3n(c(=NC(=O)c4cnc(N)nc4)nc12)CCN3 was what?
active

In this assay, the call recorded for Cn1nccc1Nc1nccc(-c2ccn(C(CO)c3ccc(Cl)c(F)c3)c(=O)c2)n1 (centres undefined) + COc1c(OCCCN2CCOCC2)ccc2c3n(c(=NC(=O)c4cnc(N)nc4)nc12)CCN3 was what?
active

In this assay, the call recorded for CC(C)NCC(C(=O)N1CCN(c2ncnc3c2C(C)CC3O)CC1)c1ccc(Cl)cc1 (centres undefined) + Cc1nc(NC(=O)N2CCCC2C(N)=O)sc1-c1ccnc(C(C)(C)C(F)(F)F)c1 was what?
inactive

In this assay, the call recorded for CC(=O)c1c(C)c2cnc(Nc3ccc(N4CCNCC4)cn3)nc2n(C2CCCC2)c1=O + CC(Nc1ncnc2nc[nH]c12)c1cc2cccc(Cl)c2c(=O)n1-c1ccccc1 was what?
inactive

In this assay, the call recorded for CC(C)n1nc(-c2ccc3oc(N)nc3c2)c2c(N)ncnc21 + Cc1nc(NC(=O)N2CCCC2C(N)=O)sc1-c1ccnc(C(C)(C)C(F)(F)F)c1 was what?
inactive

In this assay, the call recorded for CNC(=O)c1ccc(N2C(=S)N(c3ccc(C#N)c(C(F)(F)F)c3)C(=O)C2(C)C)cc1F + CC(Nc1ccc2c(c1)OCCn1cc(N3C(=O)OCC3C(F)F)nc1-2)C(N)=O was what?
inactive

In this assay, the call recorded for CCCS(=O)(=O)Nc1ccc(F)c(C(=O)c2c[nH]c3ncc(-c4ccc(Cl)cc4)cc23)c1F + COc1c(OCCCN2CCOCC2)ccc2c3n(c(=NC(=O)c4cnc(N)nc4)nc12)CCN3 was what?
active

In this assay, the call recorded for CCCS(=O)(=O)Nc1ccc(F)c(C(=O)c2c[nH]c3ncc(-c4ccc(Cl)cc4)cc23)c1F + Cc1nc(NC(=O)N2CCCC2C(N)=O)sc1-c1ccnc(C(C)(C)C(F)(F)F)c1 was what?
inactive

In this assay, the call recorded for Cn1nccc1Nc1nccc(-c2ccn(C(CO)c3ccc(Cl)c(F)c3)c(=O)c2)n1 (centres undefined) + CC(Nc1ccc2c(c1)OCCn1cc(N3C(=O)OCC3C(F)F)nc1-2)C(N)=O was what?
inactive

In this assay, the call recorded for Cn1ncnc1[C@H]1c2n[nH]c(=O)c3cc(F)cc(c23)N[C@@H]1c1ccc(F)cc1 + CC(Nc1ncnc2nc[nH]c12)c1cc2cccc(Cl)c2c(=O)n1-c1ccccc1 was what?
inactive

In this assay, the call recorded for C[C@@H](NC(=O)c1ncnc(N)c1Cl)c1ncc(C(=O)Nc2cc(C(F)(F)F)c(Cl)cn2)s1 + Cc1nc(NC(=O)N2CCCC2C(N)=O)sc1-c1ccnc(C(C)(C)C(F)(F)F)c1 was what?
inactive

In this assay, the call recorded for C#Cc1c(F)ccc2cc(O)cc(-c3ncc4c(N5CC6CCC(C5)N6)nc(OCC56CCCN5CC(F)C6)nc4c3F)c12 (centres undefined) + COc1c(OCCCN2CCOCC2)ccc2c3n(c(=NC(=O)c4cnc(N)nc4)nc12)CCN3 was what?
active

In this assay, the call recorded for Cn1ncnc1[C@H]1c2n[nH]c(=O)c3cc(F)cc(c23)N[C@@H]1c1ccc(F)cc1 + Cc1nc(NC(=O)N2CCCC2C(N)=O)sc1-c1ccnc(C(C)(C)C(F)(F)F)c1 was what?
inactive

In this assay, the call recorded for CC(C)NCC(C(=O)N1CCN(c2ncnc3c2C(C)CC3O)CC1)c1ccc(Cl)cc1 (centres undefined) + COc1c(OCCCN2CCOCC2)ccc2c3n(c(=NC(=O)c4cnc(N)nc4)nc12)CCN3 was what?
active

---

# Tested on: 855422-203-R-J1-PDC spheroids with HUVEC/MSC, viability
# Protocol summary: Anticancer human tumor 855422-203-R-J1-PDC cell line growth inhibition [PI3K];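 also: agents incubated with spheroids for one week before read-out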
# Measurement setup: curve of first compound; second compound 0.01 µM
# From the text: Combinatorial screen of targeted agents with the PI3K inhibitors inavolisib, alpelisib, duvelisib, and copanlisib in multi-cell type tumor spheroids A high-throughput screen of multi-cell type tumor spheroids was designed to identify active combinations of targeted small molecules and PI3K pathway inhibitors. […] Compounds. […] If the clinical Cmax for an agent had not been determined, the highest concentration tested was 10 microM. […]
pIC50: −log10 of the molar value.
Please respond with reported pIC50 for every item in the list.

GET /values?item= C=CC(=O)N1CCN(c2nc(=O)n(-c3c(C)ccnc3C(C)C)c3nc(-c4c(O)cccc4F)c(F)cc23)C(C)C1 (stereo not drawn) + COc1c(OCCCN2CCOCC2)ccc2c3n(c(=NC(=O)c4cnc(N)nc4)nc12)CCN3 &system= 855422-203-R-J1-PDC spheroids with HUVEC/MSC, viability returns pIC50: < 5.00

GET /values?item= C=CC(=O)N1CCN(c2nc(=O)n(-c3c(C)ccnc3C(C)C)c3nc(-c4c(O)cccc4F)c(F)cc23)C(C)C1 (stereo not drawn) + CC(Nc1ccc2c(c1)OCCn1cc(N3C(=O)OCC3C(F)F)nc1-2)C(N)=O &system= 855422-203-R-J1-PDC spheroids with HUVEC/MSC, viability returns pIC50: < 5.00

GET /values?item= CC(=O)c1c(C)c2cnc(Nc3ccc(N4CCNCC4)cn3)nc2n(C2CCCC2)c1=O + COc1c(OCCCN2CCOCC2)ccc2c3n(c(=NC(=O)c4cnc(N)nc4)nc12)CCN3 &system= 855422-203-R-J1-PDC spheroids with HUVEC/MSC, viability returns pIC50: < 7.00

---

Please respond with reported pIC50 for every item in the list.
# Tested on: 855422-203-R-J1-PDC spheroids with HUVEC/MSC, viability
# Protocol summary: Anticancer human tumor 855422-203-R-J1-PDC cell line growth inhibition [PI3K];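 also: agents incubated with spheroids for one week before read-out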
# Measurement setup: curve of first compound; second compound 0.1 µM
pIC50: −log10 of the molar value.

Given item CC1(C)CCC(Nc2ncc(C(F)(F)F)c(-c3c[nH]c4c(P(C)(C)=O)c(C#N)ccc34)n2)CN1 (stereo not drawn) + CC(Nc1ncnc2nc[nH]c12)c1cc2cccc(Cl)c2c(=O)n1-c1ccccc1 , the value recorded as its pIC50 is > 7.50

Given item CNC(=O)c1ccc(N2C(=S)N(c3ccc(C#N)c(C(F)(F)F)c3)C(=O)C2(C)C)cc1F + COc1c(OCCCN2CCOCC2)ccc2c3n(c(=NC(=O)c4cnc(N)nc4)nc12)CCN3 , the value recorded as its pIC50 is > 7.50

Given item Cn1ncnc1[C@H]1c2n[nH]c(=O)c3cc(F)cc(c23)N[C@@H]1c1ccc(F)cc1 + CC(Nc1ccc2c(c1)OCCn1cc(N3C(=O)OCC3C(F)F)nc1-2)C(N)=O , the value recorded as its pIC50 is < 7.00

---

# Test system: 855422-203-R-J1-PDC spheroids with HUVEC/MSC, viability
# Protocol summary: Anticancer human tumor 855422-203-R-J1-PDC cell line growth inhibition [PI3K];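 also: agents incubated with spheroids for one week before read-out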
# Measurement setup: curve of first compound; second compound 0.316 µM
Reported property: IC50

GET /values?item= CNC(=O)c1ccc(N2C(=S)N(c3ccc(C#N)c(C(F)(F)F)c3)C(=O)C2(C)C)cc1F + Cc1nc(NC(=O)N2CCCC2C(N)=O)sc1-c1ccnc(C(C)(C)C(F)(F)F)c1 &system= 855422-203-R-J1-PDC spheroids with HUVEC/MSC, viability returns IC50: > 10 µM

GET /values?item= C[C@@H](NC(=O)c1ncnc(N)c1Cl)c1ncc(C(=O)Nc2cc(C(F)(F)F)c(Cl)cn2)s1 + Cc1nc(NC(=O)N2CCCC2C(N)=O)sc1-c1ccnc(C(C)(C)C(F)(F)F)c1 &system= 855422-203-R-J1-PDC spheroids with HUVEC/MSC, viability returns IC50: > 10 µM

GET /values?item= CNC(=O)c1ccc(N2C(=S)N(c3ccc(C#N)c(C(F)(F)F)c3)C(=O)C2(C)C)cc1F + COc1c(OCCCN2CCOCC2)ccc2c3n(c(=NC(=O)c4cnc(N)nc4)nc12)CCN3 &system= 855422-203-R-J1-PDC spheroids with HUVEC/MSC, viability returns IC50: < 0.0316 µM

GET /values?item= Cn1ncc(Cl)c1-c1cc(C(=O)NC(CN)Cc2cccc(F)c2)sc1Cl (stereo not given) + COc1c(OCCCN2CCOCC2)ccc2c3n(c(=NC(=O)c4cnc(N)nc4)nc12)CCN3 &system= 855422-203-R-J1-PDC spheroids with HUVEC/MSC, viability returns IC50: < 0.0316 µM

GET /values?item= C=CC(=O)N1CCN(c2nc(=O)n(-c3c(C)ccnc3C(C)C)c3nc(-c4c(O)cccc4F)c(F)cc23)C(C)C1 (stereo not given) + CC(Nc1ccc2c(c1)OCCn1cc(N3C(=O)OCC3C(F)F)nc1-2)C(N)=O &system= 855422-203-R-J1-PDC spheroids with HUVEC/MSC, viability returns IC50: > 10 µM
